- Test system: HeLa
- experiment notes: Cytotoxicity against human HeLa cells after 48 hrs by CCK8 assay
- Format: functional, cell-based
endpoint label: IC50 (µM)

- input smiles: "CC(=O)OC[C@@H]1c2ccoc2C[C@H]2[C@H]1C[C@H](OC(C)=O)[C@H]1C(C)(C)CCC[C@]21C"
  endpoint label: "IC50"
  observed value: 32.2
